These measurements were taken from ChEMBL document CHEMBL4145695.

// IC50 lookup, one value per entry
# SYSTEM_UNDER_TEST: Histone deacetylase 1 (Homo sapiens, UniProt Q13547)
# Sequence (Q13547 whole entry): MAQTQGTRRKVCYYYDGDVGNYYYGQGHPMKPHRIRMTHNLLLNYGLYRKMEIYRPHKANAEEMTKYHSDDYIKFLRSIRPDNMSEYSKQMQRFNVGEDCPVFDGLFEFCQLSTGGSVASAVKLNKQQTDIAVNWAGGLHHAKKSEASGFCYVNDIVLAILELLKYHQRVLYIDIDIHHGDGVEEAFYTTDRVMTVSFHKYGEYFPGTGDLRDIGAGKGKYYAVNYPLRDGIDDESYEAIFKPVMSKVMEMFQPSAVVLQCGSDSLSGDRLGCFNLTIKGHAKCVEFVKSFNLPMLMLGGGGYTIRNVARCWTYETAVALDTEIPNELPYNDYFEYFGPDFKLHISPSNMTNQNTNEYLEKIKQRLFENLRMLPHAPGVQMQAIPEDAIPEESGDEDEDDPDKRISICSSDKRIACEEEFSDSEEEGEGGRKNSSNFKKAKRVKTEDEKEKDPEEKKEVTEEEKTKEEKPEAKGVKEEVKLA
# PROTOCOL: Inhibition of human recombinant HDAC1 incubated for 90 mins using fluorogenic substrate ZMAL (Z-Lys(Ac)-AMC) by fluorescence based assay
Report the value in µM with no unit label.

Cc1cc(C)cc(C(=O)N(CC(=O)NC2CCCCC2)Cc2ccc(C(=O)NO)cc2)c1 = 0.27

Now for another entry.
The value of IC50 measured for the compound `CN(C)c1ccc(C(=O)N(CC(=O)NCc2ccccc2)Cc2ccc(C(=O)NO)cc2)cc1` turned out to be 0.008

###

In this section we review reported IC50 values for a set of molecules.
# SYSTEM_UNDER_TEST: Protein deacetylase HDAC6 (Homo sapiens)
# Sequence (Q9UBN7 whole entry): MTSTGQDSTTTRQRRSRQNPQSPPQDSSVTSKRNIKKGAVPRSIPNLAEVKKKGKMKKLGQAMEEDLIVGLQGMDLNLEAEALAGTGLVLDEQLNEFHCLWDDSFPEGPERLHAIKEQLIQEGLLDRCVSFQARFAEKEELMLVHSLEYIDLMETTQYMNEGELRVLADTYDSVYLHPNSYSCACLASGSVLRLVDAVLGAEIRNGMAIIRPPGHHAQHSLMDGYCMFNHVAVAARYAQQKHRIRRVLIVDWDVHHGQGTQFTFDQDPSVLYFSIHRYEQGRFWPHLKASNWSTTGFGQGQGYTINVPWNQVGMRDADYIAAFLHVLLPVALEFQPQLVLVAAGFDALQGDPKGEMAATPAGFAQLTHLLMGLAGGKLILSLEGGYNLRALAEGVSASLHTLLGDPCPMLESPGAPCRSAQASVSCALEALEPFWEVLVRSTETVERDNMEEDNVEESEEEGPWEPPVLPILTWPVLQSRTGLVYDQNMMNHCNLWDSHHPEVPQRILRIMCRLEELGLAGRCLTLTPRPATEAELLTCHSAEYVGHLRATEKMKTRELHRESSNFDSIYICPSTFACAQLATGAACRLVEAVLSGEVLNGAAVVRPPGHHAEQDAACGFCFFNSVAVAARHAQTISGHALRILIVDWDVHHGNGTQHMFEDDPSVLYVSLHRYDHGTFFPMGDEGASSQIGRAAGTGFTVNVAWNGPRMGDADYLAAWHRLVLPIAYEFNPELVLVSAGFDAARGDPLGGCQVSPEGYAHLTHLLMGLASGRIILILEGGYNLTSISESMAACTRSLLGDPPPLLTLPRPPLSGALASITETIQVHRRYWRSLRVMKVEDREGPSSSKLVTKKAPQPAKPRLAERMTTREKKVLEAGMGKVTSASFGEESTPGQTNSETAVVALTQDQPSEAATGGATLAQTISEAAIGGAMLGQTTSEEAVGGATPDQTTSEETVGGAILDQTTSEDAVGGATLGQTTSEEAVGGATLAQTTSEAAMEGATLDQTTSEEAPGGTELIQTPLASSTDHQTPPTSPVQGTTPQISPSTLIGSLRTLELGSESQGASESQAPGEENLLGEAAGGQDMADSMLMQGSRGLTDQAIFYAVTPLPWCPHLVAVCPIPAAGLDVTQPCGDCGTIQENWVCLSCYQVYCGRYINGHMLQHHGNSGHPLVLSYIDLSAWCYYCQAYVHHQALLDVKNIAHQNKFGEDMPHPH
# PROTOCOL: Inhibition of human recombinant HDAC6 incubated for 90 mins using fluorogenic substrate ZMAL (Z-Lys(Ac)-AMC) by fluorescence based assay
Entry rule: numbers only, all in µM.

CN(C)c1ccc(C(=O)N(CC(=O)NCc2ccccc2)Cc2ccc(C(=O)NO)cc2)cc1 = 0.014

Read the next record carefully.
Entry `Cc1cc(C)cc(C(=O)N(CC(=O)NC2CCCCC2)Cc2ccc(C(=O)NO)cc2)c1` — recorded IC50 = 0.011
